target-or-system: GRK2 (Homo sapiens)
Construct: fused on or other part: hexahistidine tag
measurement-notes: In vitro phosphorylation assay: GRK2-mediated phosphorylation of SRSF1 with purified proteins
Format: biochemical
experimental-parameters: purified proteins, n=4; read-out: IC50 value, inhibition of GRK2-mediated phosphorylation of SRSF1
readout-kind: pIC50
// field semantics: pIC50 = negative decimal log of concentration (mol/L)

// lookup pIC50 for O=C(C1=C(O)C(c2ccccc2)N(c2ccc3c(c2)OCO3)C1=O)C1CC1 (stereo not shown)
6.35

====

target-or-system: GRK2 (Homo sapiens, UniProt P25098)
Construct: fused on or other part: hexahistidine tag
Sequence (P25098 1-669 limits assumed): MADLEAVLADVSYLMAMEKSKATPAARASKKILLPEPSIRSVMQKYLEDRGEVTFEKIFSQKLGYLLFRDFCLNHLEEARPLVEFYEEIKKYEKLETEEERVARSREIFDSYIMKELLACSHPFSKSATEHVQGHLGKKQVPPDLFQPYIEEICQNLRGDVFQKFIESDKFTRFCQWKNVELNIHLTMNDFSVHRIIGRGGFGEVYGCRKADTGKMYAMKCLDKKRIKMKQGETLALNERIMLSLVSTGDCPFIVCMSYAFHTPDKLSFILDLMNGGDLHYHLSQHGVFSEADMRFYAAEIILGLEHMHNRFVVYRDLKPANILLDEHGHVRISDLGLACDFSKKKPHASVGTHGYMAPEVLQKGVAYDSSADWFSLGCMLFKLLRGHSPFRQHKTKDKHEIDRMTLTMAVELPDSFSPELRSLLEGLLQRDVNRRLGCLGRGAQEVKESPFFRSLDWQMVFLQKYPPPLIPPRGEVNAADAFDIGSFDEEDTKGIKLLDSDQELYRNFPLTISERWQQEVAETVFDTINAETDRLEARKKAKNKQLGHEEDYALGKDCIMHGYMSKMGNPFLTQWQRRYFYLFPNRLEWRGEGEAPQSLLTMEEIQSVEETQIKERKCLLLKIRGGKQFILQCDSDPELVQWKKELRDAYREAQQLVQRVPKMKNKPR
measurement-notes: In vitro phosphorylation assay: GRK2-mediated phosphorylation of SRSF1 with purified proteins
Type: biochemical
experimental-parameters: purified proteins; read-out: IC50 value, inhibition of GRK2-mediated SRSF1 phosphorylation
readout-kind: IC50 (nM)
Field format: number, assumed nM, no unit text.

Look up IC50 with GRK2 (Homo sapiens, UniProt P25098) for this molecule: c1cc(-c2ccc3c(c2)OCO3)ncn1
1870

Let us examine a further case.
Under GRK2 (Homo sapiens, UniProt P25098): IC50 value of O=C(C1=C(O)C(c2ccccc2)N(c2ccc3c(c2)OCO3)C1=O)C1CC1 (centres unmarked) ?
450
